Assay: IN Cell qHTS Assay for Inhibitors of the mTORC1 Signaling Pathway in MEF (Tsc2-/-, p53-/-) Cells: Sytravon; further: nearly all actives have a fitted effect of over 60% in size
Conditions: phospho-rpS6 immunofluorescence, 24 h; series mostly up to 38.3 µM
Among all 2,100 compounds or so, about 210 (10%) were called active. Roughly 53% stayed inconclusive and do not appear here. The call rests on the fitted dose curve; in most records, active means well fitted inhibition curve with a large enough effect; inconclusive means small, poorly fitted or top-dose-only effect, or effect the other way; inactive means no such curve, though single readings can be large or run the other way. The list shows a part of the results.
Assign a class; possible classes are active, inactive

Below are worked cases with known answers.
>  <compound>
O=C(NCC1CCN(Cc2ccccc2F)CC1)Nc1ccc(F)c(Cl)c1

>  <assignedCategory>
inactive

$$$$
>  <compound>
CCCCN1C(=O)c2[nH]nc(-c3ccccc3O)c2C1c1cccc(OCc2ccccc2)c1 (stereo not given)

>  <assignedCategory>
active

$$$$
>  <compound>
CCc1ccc(NC(=O)c2ccc(F)c(S(=O)(=O)NCc3ccc(Cl)c(Cl)c3)c2)cc1

>  <assignedCategory>
inactive

$$$$

Tell me the recorded outcome of this test for Cc1ccc(-n2c(SCc3ccccc3C)nc3[nH]ncc3c2=O)cc1C .
inactive

Tell me the recorded outcome of this test for CC(C)Cc1cc(C(=O)NCc2ccc(Cl)cc2)no1 .
inactive

Tell me the recorded outcome of this test for COc1ccc(C(=O)N2CCc3cc(OC)c(OC)cc3C2COc2ccc3c(C)cc(=O)oc3c2)c(OC)c1 (stereo not given) .
inactive

Tell me the recorded outcome of this test for O=C(Nc1ccc(C(F)(F)F)cc1)C1CCCN(S(=O)(=O)c2cccc3cccnc23)C1 (stereo not given) .
inactive

Tell me the recorded outcome of this test for CC(C)OCCCN1C(=O)c2[nH]nc(-c3ccccc3O)c2C1c1ccc(OCc2ccccc2)cc1 (stereo not given) .
active

Tell me the recorded outcome of this test for CCOC(=O)Cn1c(=O)n(C2CCCCC2)c2nc(-c3cccc(C)c3)nc(C(N)=O)c21 .
inactive

Tell me the recorded outcome of this test for Cc1ccc(C(=O)Nc2c(C(=O)NCc3ccc(Cl)cc3)sc3nc(C)cc(C)c23)cc1 .
active

Tell me the recorded outcome of this test for Cc1ccc(NC(=O)c2cc(S(=O)(=O)N3CCc4ccccc43)ccc2F)cc1Cl .
inactive

Tell me the recorded outcome of this test for CCCN1C(=O)C(Cc2nc3ccccc3c(=O)n2CC)c2cc(Br)ccc21 (stereo not given) .
inactive

Tell me the recorded outcome of this test for O=C(Nc1ccc(Cl)cc1)c1cc(S(=O)(=O)N2CCCc3ccccc32)ccc1F .
inactive

Tell me the recorded outcome of this test for CCc1ccc(CNC(=O)c2ccc(NC(=O)N3CCCCc4ccccc43)cc2)cc1 .
inactive

Tell me the recorded outcome of this test for Cc1cccc(C(=O)Nc2c(C(=O)NCc3ccc(Cl)cc3)sc3nc(C)cc(C)c23)c1 .
inactive

Tell me the recorded outcome of this test for COCCCNC(=O)c1sc2nc(C)c(C(=O)Nc3ccc(C)cc3C)c(-c3ccc(Cl)cc3)c2c1N .
inactive

Tell me the recorded outcome of this test for O=C1c2[nH]nc(-c3ccccc3O)c2C(c2ccc(Cl)cc2)N1CCc1ccccc1 (stereo not given) .
inactive

Tell me the recorded outcome of this test for Cc1ccc(C)c(CN2CCC(CNC(=O)c3cc4ccc5cccnc5c4[nH]3)CC2)c1 .
inactive

Tell me the recorded outcome of this test for COc1ccc(C2c3c(-c4ccccc4O)n[nH]c3C(=O)N2CCc2ccccc2)cc1 (stereo not given) .
inactive

Tell me the recorded outcome of this test for COc1ccc(CCN2C(=O)c3[nH]nc(-c4ccccc4O)c3C2c2cccc(OC)c2)cc1 (stereo not given) .
active
